test: in vivo; details: beagle, dog, po, 2 mg/kg
ENDPOINT_LABEL: AUC(0-inf) (ng·h/mL)
Answers are plain numbers, in ng·h/mL.

Task: Quick check: AUC(0-inf) of C=CC(=O)Nc1cc(Nc2nccc(-c3cn(C4CC4)c4ccccc34)n2)c(OC)cc1N(C)CCN(C)C ?
Output: 5150

* * *

test: PK analysis in rats; type: in vivo, Sprague Dawley (SD) rats; conditions: Sprague-Dawley, rat, po, 5 mg/kg; SD rats, single intragastric administration, 5 mg/10 ml/kg, plasma; read-out: AUC0-8
ENDPOINT_LABEL: AUC(0-t) (ng·h/mL)
Give bare numbers, in ng·h/mL.

Solved entries:
C=CC(=O)Nc1cc(Nc2nccc(-c3cn(C4CC4)c4ccccc34)n2)c(OC)cc1N(C)CCNC [Metabolite of Example 26] :: 77.4
C=CC(=O)Nc1cc(Nc2nccc(-c3cn(C)c4ccccc34)n2)c(OC)cc1N(C)CCN(C)C [AZD-9291, reference compound] :: 278

Task: Requested field: AUC(0-t). Item: C=CC(=O)Nc1cc(Nc2nccc(-c3cn(C4CC4)c4ccccc34)n2)c(OC)cc1N(C)CCN(C)C
Output: 235

* * *

test: in vivo; details: beagle, dog, po, 2 mg/kg
ENDPOINT_LABEL: Tmax (h)
Answers are plain numbers, in h.

Solved cases (2 shown):
C=CC(=O)Nc1cc(Nc2nccc(-c3cn(C4CC4)c4ccccc34)n2)c(OC)cc1N(C)CCNC [Metabolite of Example 26] :: 6
C=CC(=O)Nc1cc(Nc2nccc(-c3cn(C)c4ccccc34)n2)c(OC)cc1N(C)CCN(C)C [AZD-9291, reference compound] :: 1

Would you kindly look at the next entry?
Task: Entry C=CC(=O)Nc1cc(Nc2nccc(-c3cn(C4CC4)c4ccccc34)n2)c(OC)cc1N(C)CCN(C)C [Example 26] : reported Tmax = ?
Output: 1

* * *

Record form. Attribute: Selectivity of wild-type/mutant-type. Fill in for each entry.
molecular target: exon 20 T790M mutant-type EGFR enzyme (Homo sapiens, UniProt P00533, T790M); assay: Enzymologic experiment of T790M mutant-type EGFR (TR-FRET); format: biochemical; details: ratio WT IC50 / T790M IC50, enzyme
Sequence (P00533 25-1210 T790M): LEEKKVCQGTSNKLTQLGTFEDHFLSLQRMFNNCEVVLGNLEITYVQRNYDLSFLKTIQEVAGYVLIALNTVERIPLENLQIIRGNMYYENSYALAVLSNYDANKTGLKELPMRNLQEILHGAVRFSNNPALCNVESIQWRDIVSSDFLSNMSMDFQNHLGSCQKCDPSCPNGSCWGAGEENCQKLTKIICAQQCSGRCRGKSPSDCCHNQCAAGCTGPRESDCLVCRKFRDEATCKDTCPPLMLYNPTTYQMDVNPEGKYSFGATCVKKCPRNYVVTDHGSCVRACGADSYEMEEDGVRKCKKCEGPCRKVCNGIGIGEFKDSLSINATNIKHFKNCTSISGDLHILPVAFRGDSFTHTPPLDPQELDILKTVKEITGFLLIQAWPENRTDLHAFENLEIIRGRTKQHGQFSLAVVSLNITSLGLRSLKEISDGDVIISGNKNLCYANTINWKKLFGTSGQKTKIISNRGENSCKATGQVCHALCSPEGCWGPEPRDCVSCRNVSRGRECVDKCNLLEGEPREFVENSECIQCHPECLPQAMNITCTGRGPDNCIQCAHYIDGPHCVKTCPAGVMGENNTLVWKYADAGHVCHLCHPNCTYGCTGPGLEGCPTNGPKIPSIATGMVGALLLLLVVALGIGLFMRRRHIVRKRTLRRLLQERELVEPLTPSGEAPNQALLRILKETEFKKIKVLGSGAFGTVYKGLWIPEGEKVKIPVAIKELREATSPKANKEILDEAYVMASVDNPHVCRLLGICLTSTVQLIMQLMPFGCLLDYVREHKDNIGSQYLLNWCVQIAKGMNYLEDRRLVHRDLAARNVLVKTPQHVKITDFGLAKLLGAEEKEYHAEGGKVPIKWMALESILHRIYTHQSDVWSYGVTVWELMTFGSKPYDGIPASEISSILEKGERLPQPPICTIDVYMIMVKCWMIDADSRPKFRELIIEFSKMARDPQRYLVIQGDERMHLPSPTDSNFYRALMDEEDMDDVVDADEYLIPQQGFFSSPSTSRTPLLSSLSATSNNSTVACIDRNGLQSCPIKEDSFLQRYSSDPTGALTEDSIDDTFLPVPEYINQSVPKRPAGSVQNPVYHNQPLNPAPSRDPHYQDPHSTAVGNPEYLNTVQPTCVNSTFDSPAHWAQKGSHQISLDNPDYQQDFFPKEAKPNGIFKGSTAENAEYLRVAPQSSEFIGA
One number for each entry.

Worked cases, Selectivity of wild-type/mutant-type given:
C=CC(=O)Nc1cc(Nc2nccc(-n3cnc4ccc(OC)cc43)n2)c(OC)cc1N(C)CCN(C)C :: 6.16
C=CC(=O)Nc1cc(Nc2nccc(-c3cn(C)c4cc(C5CC5)ccc34)n2)c(OC)cc1N(C)CCN(C)C :: 10.4
C=CC(=O)Nc1cc(Nc2ncc(C(F)(F)F)c(-c3cn(S(=O)(=O)N(C)C)c4cc(OC)ccc34)n2)c(OC)cc1N(C)CCN(C)C :: 9.50
C=CC(=O)Nc1cc(Nc2ncc(C(F)(F)F)c(-n3cnc4cc(OC)ccc43)n2)c(OC)cc1N(C)CCN(C)C :: 231.9

Items follow; give Selectivity of wild-type/mutant-type for each.
1. C=CC(=O)Nc1cc(Nc2nccc(-n3ncc4cc(OCC)ccc43)n2)c(OC)cc1N(C)CCN(C)C
2. C=CC(=O)Nc1cc(Nc2ncc(Cl)c(-n3nc(C4CC4)c4cc(OC)ccc43)n2)c(OC)cc1N(C)CCN(C)C
3. C=CC(=O)Nc1cc(Nc2nccc(-c3cn(C)c4cc(OC)ccc34)n2)c(OC(F)F)cc1N(C)CCN(C)C

Output:
[2.38, 10.65, 16.3]
